Documented pIC50 across a set of compounds
# systemName: UniProt P31652
# Sequence (P31652 whole entry): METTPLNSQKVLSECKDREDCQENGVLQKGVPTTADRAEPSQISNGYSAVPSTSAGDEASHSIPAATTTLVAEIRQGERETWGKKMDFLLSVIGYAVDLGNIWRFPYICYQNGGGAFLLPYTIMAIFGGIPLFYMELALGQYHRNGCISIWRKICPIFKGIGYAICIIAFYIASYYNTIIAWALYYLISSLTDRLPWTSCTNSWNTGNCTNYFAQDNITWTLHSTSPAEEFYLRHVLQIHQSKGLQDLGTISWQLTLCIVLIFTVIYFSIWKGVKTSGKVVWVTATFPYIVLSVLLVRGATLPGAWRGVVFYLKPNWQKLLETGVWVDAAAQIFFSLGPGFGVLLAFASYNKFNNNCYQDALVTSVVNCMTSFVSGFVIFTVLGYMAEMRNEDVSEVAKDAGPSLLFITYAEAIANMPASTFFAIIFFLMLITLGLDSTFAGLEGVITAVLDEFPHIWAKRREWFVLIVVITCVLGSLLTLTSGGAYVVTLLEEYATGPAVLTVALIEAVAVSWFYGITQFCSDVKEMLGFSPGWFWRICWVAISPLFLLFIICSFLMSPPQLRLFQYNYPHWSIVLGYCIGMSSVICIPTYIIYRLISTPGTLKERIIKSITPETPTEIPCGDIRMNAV
# testSummary: [3H]5-HT uptake inhibition in rat brain synaptosomes
# Format: biochemical
# conditionInfo: read-out: [3H]5-HT Uptake Inhibition IC50 ± SD, SERT; rat brain synaptosomes, n = 3
pIC50: −log10 of the molar value.
recordedEndpoint: pIC50

- compound: "CCC1CC2CC3c4c(c5cc(O)ccc5n4CC)CCN(C2)C13 (stereo not shown)"
  recordedEndpoint: "pIC50"
  experimentalResult: 7.10
- compound: "CCC1CC2CC3c4c(c5cc(O)ccc5n4C)CCN(C2)C13 (stereo not shown)"
  recordedEndpoint: "pIC50"
  experimentalResult: 7.87
- compound: "CC[C@H]1C[C@H]2C[C@H]3c4[nH]c5ccc(O)cc5c4CCN(C2)[C@@H]13"
  recordedEndpoint: "pIC50"
  experimentalResult: 6.49
- compound: "CC[C@H]1C[C@@H]2C[C@H]3c4[nH]c5ccc(C#N)cc5c4CCN(C2)[C@@H]13"
  recordedEndpoint: "pIC50"
  experimentalResult: 7.19

* * *

# systemName: VMAT2 (Rattus norvegicus, UniProt Q01827)
# Sequence (Q01827 whole entry): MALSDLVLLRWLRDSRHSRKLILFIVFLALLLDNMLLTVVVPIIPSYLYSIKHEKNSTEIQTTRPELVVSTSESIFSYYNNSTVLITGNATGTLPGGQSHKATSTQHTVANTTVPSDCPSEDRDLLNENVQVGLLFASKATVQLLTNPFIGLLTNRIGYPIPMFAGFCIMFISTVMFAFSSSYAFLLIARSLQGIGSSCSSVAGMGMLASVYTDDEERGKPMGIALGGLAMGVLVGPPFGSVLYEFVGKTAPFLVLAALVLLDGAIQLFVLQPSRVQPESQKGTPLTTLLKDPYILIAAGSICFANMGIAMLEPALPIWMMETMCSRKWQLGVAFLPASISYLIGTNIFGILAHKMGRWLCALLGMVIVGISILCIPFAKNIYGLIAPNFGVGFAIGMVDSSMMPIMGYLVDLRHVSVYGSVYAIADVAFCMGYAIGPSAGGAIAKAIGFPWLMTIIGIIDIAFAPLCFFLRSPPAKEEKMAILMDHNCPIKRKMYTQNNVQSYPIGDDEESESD
# testSummary: [3H]5-HT release from rat brain synaptic vesicles via VMAT2
# Format: biochemical
# conditionInfo: read-out: [3H]5-HT Release % Emax via VMAT2
Documented Emax across a set of compounds

- compound: "COC(=O)[C@H]1[C@H]2C[C@@H]3c4[nH]c5cc(OC)ccc5c4CCN3C[C@H]2C[C@@H](OC(=O)c2cc(OC)c(OC)c(OC)c2)[C@@H]1OC [reserpine, reference compound]"
  Emax: "< 30%"
- compound: "COc1cc2c(cc1OC)C1CC(=O)C(CC(C)C)CN1CC2 (centres unmarked) [tetrabenazine (TBZ), tetrabenazine, reference compound]"
  Emax: "< 30%"
- compound: "CC(N)Cc1ccccc1 (centres unmarked) [amphetamine, reference compound]"
  Emax: "98%"
- compound: "CC[C@H]1C[C@@H]2C[C@H]3c4[nH]c5ccccc5c4CCN(C2)[C@@H]13"
  Emax: "< 30%"
- compound: "NCCc1c[nH]c2ccc(O)cc12 [serotonin (5-HT), serotonin, reference compound]"
  Emax: "113%"

* * *

# systemName: hVMAT2 (Homo sapiens)
# Sequence (Q05940 whole entry): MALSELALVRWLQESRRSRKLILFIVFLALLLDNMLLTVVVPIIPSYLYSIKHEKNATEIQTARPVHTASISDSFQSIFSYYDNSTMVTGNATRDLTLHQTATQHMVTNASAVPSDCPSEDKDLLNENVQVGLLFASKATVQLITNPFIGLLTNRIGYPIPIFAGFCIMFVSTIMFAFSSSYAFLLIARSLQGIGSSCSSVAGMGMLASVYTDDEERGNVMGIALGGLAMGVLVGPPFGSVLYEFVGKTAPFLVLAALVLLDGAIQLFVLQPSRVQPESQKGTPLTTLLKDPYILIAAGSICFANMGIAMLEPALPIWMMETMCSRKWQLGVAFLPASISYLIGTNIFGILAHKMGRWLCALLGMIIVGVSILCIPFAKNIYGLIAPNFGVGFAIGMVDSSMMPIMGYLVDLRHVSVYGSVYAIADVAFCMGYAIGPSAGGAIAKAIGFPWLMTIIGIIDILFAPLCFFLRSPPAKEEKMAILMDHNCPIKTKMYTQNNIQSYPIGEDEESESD
# testSummary: FFN206 fluorescent substrate uptake inhibition in hVMAT2-HEK cells
# Type: cell-based
# conditionInfo: read-out: IC50, hVMAT2 (uptake inhibition, FFN206); hVMAT2-HEK cells, fluorescent substrate FFN206, n = 4
pIC50: −log10 of the molar value.
recordedEndpoint: pIC50

- compound: "CC[C@H]1C[C@H]2C[C@H]3c4[nH]c5ccc(O)cc5c4CCN(C2)[C@@H]13"
  experimentalResult: 6.24
- compound: "CCC1CC2CC3c4c(c5cc(O)ccc5n4C)CCN(C2)C13 (stereo not drawn)"
  experimentalResult: 6.77
- compound: "CCOc1ccc2[nH]c3c(c2c1)CCN1CC2CC(CC)C1C3C2 (stereo not drawn)"
  experimentalResult: 7.10
- compound: "CCC1CC2CC3c4oc5ccc(O)cc5c4CCN(C2)C13 (stereo not drawn)"
  experimentalResult: 6.17
- compound: "CCC1CC2CC3c4c(c5cc(O)ccc5n4CC)CCN(C2)C13 (stereo not drawn)"
  experimentalResult: 7.15
- compound: "CC[C@H]1C[C@@H]2C[C@H]3c4[nH]c5ccc(C#N)cc5c4CCN(C2)[C@@H]13"
  experimentalResult: 5.48
